# pIC50 annotations
- Assayed target: type III phosphodiesterase
- Assay text: Phosphodiesterase inhibition activity (in vitro), Type III
pIC50: −log10 of the molar value.

Worked examples, 2 molecules total:
CCn1c(=O)cc(-c2ccccc2)c2c(C)cc(C)nc21; < 4.52
CCn1c(=O)cc(C2CCCCC2)c2cccnc21 [Example 46, hydrate]; < 4.52

Here is the next item to consider.
Value lookup for pIC50; key = CCc1cc(C)c2c(-c3cccc(Cl)c3)cc(=S)n(C)c2n1
< 4.52

* * *

- Assayed target: type V phosphodiesterase (Homo sapiens)
- Assay text: Phosphodiesterase inhibition activity (in vitro), Type V
- Run conditions: 1 μM cGMP
Assay metric: IC50 (µM)

Study these solved cases before continuing.
CCc1cc(C)c2c(-c3ccccc3)cc(=O)n(CC)c2n1 [Example 40]; 14.5
CCn1c(=O)cc(-c2cccc(Cl)c2)c2c(C)cc(C)nc21 [Example 29]; 24.6

[A] CCc1cc(C)c2c(-c3cccc(Cl)c3)cc(=O)n(C)c2n1 [Example 27]
[B] Cc1cc(C)c2c(-c3cccc(Cl)c3)cc(=O)n(C)c2n1 [Example 24]
Sort A and B by IC50 descending and give the first. Your answer should be the label of the entry you select.
A
(A: 27.9 µM, B: 9.7 µM)

Data origin: patent US5817670A
